Catalogue of EC50 readings, one per entry.
ASSAY SYSTEM: T1, recombinant human Siglec-8 extracellular domain (ECD) (human, UniProt Q9NYZ4 17-363)
T1 construct: extracellular domain; also called Siglec-8 ECD; full Siglec-8 ECD
T1 sequence (Q9NYZ4 17-363): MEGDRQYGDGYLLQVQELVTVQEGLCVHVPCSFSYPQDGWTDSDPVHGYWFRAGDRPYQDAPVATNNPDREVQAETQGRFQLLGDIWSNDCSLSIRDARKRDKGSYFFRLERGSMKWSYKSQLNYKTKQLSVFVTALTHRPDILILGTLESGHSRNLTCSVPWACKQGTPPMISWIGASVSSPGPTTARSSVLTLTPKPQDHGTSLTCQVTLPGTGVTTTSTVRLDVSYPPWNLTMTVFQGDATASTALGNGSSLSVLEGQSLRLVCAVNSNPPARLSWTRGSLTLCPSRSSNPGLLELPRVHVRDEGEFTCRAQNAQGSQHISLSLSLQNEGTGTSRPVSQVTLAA
ASSAY OVERVIEW: ELISA, coated Siglec-8 ECD
Numeric only. Scale: nM

Recorded EC50, per entry:
1. HBKE (antibody, human IgG1, V domains shown, human IgG1/kappa) VH: EVQLVESGGGLVQPGGSLRLSCAVSGFSLTIYGAHWVRQAPGKGLEWLGVIWAGGSTNYNSALMSRLSISKDNSKNTVYLQMNSLRAEDTAVYYCARDGSSPYYYSMEYWGQGTTVTVSS VL: EIVLTQSPATLSLSPGERATLSCSATSSVSYMHWFQQKPGQAPRLLIYSTSNLASGVPARFSGSGSGTDFTLTISSLEPEDFAVYYCQQRSSYPFTFGPGTKLDIK :: 0.061
2. HDKFmut (antibody, human IgG1, V domains shown, human IgG1/kappa) VH: EVQLVESGGGLVQPGGSLRLSCAASGFSLTIYGAHWVRQAPGKGLEWLSVIWAGGSTNYNSALMSRFTISKDNSKNTVYLQMNSLRAEDTAVYYCARDGSSPYYYSMEYWGQGTTVTVSS VL: EIVLTQSPATLSLSPGERATLSCSATSSVSYMHWFQQKPGQAPRLLIYSTSNLASGIPARFSGSGSGTDYTLTISSLEPEDFAVYYCQQRSSYPYTFGPGTKLDIK :: 0.056
3. RHE Y-VKE (antibody, human IgG1, V domains shown, human IgG1/kappa) VH: EVQLVESGGGLVQPGGSLRLSCAASGFSLTIYGAHWVRQAPGKGLEWVGVIWAGGSTNYNSALMSRFTISKDNSKNTVYLQMNSLRAEDTAVYYCARDGSSPYYYSMEVWGQGTTVTVSS VL: EIVLTQSPATLSLSPGERATLSCSATSSVSYMHWFQQKPGQAPRLLIYSTSNLASGVPARFSGSGSGTDFTLTISSLEPEDFAVYYCQQRSSYPFTFGPGTKLDIK :: 0.07
4. HFKB (antibody, human IgG1, V domains shown, human IgG1/kappa) VH: EVQLVESGGGLVQPGGSLRLSCAASGFSLTIYGAHWVRQAPGKGLEWVSVIWAGGSTNYNSALMSRLTISKDNSKNTVYLQMNSLRAEDTAVYYCARDGSSPYYYSMEYWGQGTTVTVSS VL: EIILTQSPATLSLSPGERATLSCSATSSVSYMHWFQQKPGQAPRLWIYSTSNLASGVPARFSGSGSGTDYTLTISSLEPEDFAVYYCQQRSSYPFTFGPGTKLDIK :: 0.099

Now turn to the next binder.
Problem: Give EC50 for the following binder: HAKD (antibody, human IgG1, V domains shown, human IgG1/kappa) VH: EVQLVESGGGLVQPGGSLRLSCAASGFSLTIYGAHWVRQAPGKGLEWVSVIWAGGSTNYNSALMSRFTISKDNSKNTVYLQMNSLRAEDTAVYYCARDGSSPYYYSMEYWGQGTTVTVSS VL: EIVLTQSPATLSLSPGERATLSCSATSSVSYMHWFQQKPGQAPRLWIYSTSNLASGIPARFSGSGSGTDFTLTISSLEPEDFAVYYCQQRSSYPFTFGPGTKLDIK
Result: 0.058
